# TGT: Recombinant human Src (Homo sapiens, UniProt P12931)
# Construct: made in house; host or cells: baculovirus-insect cell system
# Sequence (P12931 whole entry): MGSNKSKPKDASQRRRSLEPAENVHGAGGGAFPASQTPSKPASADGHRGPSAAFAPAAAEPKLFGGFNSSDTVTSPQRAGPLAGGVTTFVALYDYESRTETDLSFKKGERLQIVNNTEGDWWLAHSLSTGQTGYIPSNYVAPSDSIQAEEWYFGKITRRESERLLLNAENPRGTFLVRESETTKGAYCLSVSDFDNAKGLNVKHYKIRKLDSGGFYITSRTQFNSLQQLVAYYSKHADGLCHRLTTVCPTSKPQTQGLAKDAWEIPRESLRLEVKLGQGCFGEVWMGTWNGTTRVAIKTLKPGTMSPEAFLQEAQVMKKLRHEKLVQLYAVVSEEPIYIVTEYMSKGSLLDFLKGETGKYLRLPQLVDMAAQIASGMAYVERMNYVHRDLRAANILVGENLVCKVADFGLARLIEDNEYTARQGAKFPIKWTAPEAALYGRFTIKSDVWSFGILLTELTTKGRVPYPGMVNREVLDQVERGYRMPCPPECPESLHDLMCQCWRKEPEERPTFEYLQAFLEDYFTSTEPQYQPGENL
# ASSAY INFO: Src tyrosine kinase activity assay with poly E4Y and 32P-ATP
# Type: biochemical
# STUDY CONDITIONS: poly E4Y, 32P-ATP; NI = no inhibition; read-out: IC50 Value Src
ASSAY ENDPOINT: IC50 (nM)

# COMPOUND, ASSAY ENDPOINT, VAL
data = [
    ("CCOc1cc(F)ccc1-c1sc2c(NN=Cc3ccc(OC)c(O)c3)ncnc2c1C", "IC50", 4.9),
]

(a) COc1ccc(C=NNc2ncnc3c(C)c(-c4ccc(CN)cc4)sc23)cc1O
(b) CCOc1ccccc1-c1sc2c(NN=Cc3cc(Br)c(O)c(OC)c3)ncnc2c1O
(c) CCOc1ccccc1-c1sc2c(NN=Cc3ccsc3)ncnc2c1C#N
Ask | Hey, can you sort those compounds up there by IC50, smallest first? The response must list the labels following the requested ordering.
Reply | c, b, a

(I) CCOc1ccccc1-c1sc2c(NN=Cc3ccc(O)c(Cl)c3)ncnc2c1C#N
(II) CCOc1ccccc1-c1sc2c(NN=Cc3ccoc3)ncnc2c1C#N
(III) COc1ccc(C=NNc2ncnc3c(C)c(-c4cccc(C#N)c4)sc23)cc1O
(IV) CCOc1cc(F)ccc1-c1sc2c(NN=Cc3cccs3)ncnc2c1O
Ask | Arrange by IC50, high to low. Please, when replying, give the labels in the order that was requested.
Reply | III, II, I, IV

(1) Cc1c(-c2cccc(C(N)=O)c2)sc2c(NN=Cc3cccnc3)ncnc12
(2) Cc1c(-c2ccc(C(N)=O)cc2)sc2c(NN=Cc3cccnc3)ncnc12
Ask | Field: entry with larger IC50 (options 1 / 2 ). # answer = label of selected item
Reply | 1
(1: 91 nM, 2: 13 nM)

(I) CCOc1ccccc1-c1sc2c(NN=Cc3ccc(NC(C)=O)cc3)ncnc2c1O
(II) Cc1c(-c2cccc(C(N)=O)c2)sc2c(NN=Cc3ccc(C(=O)O)cc3)ncnc12
Ask | Compare I and II and name the one whose reported IC50 is smaller. // return label of chosen record
Reply | I
(I: 2.4 nM, II: 41 nM)
